The reported measurements were obtained from patent US20190092852A1.

System tested: T1, cyno IL-33 N-His (cynomolgus monkey)
T1 chain: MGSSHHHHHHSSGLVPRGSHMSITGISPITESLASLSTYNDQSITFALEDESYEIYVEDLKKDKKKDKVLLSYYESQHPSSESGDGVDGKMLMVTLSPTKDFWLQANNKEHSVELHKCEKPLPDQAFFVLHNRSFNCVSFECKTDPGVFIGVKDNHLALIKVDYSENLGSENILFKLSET
Experiment description: SPR Biacore T200, 25 C
Description: The binding kinetics of the anti-IL-33 antibody 10C12.38.H6.87Y.58I IgG4 and each anti-IL-33 antibody listed in Table 5 (RG1-RG20) to IL-33 were measured using surface plasmon resonance (SPR) on a BIACORE® T200 instrument (GE Healthcare). […] Antibody binding was measured to human IL-33 (R&D systems, #3625-IL-010/CF) and cyno IL-33 N-His (SEQ ID NO: 317) (Genentech, Inc.). […] After injection, disassociation of the ligand from the antibody was monitored for 10 min in running buffer. […]
Quick rule: t1/2 of at least 20 min means rule met, below that means rule not met.

- Binder: "H4H9665P (antibody, V domains shown) VH: EVQLVESGGGLVQPGGSLRLSCAASGFTFSNYAMTWVRQAPGKGLEWVSTISGSGDNTYYADSVQGRFTISRGHSKNTLYLQMNSLRAEDTAVYYCAKPTYSRSWYGAFDFWGQGTMVTVSS VL: DIQMTQSPSSVSASVGDRVTITCRASQGISSWLAWYQQKPGKAPQLLIYAASRLQSGVPSRFWGSGSGTDFTLTISSLQPEDFATYYCQQANNFPFTFGPGTKVDIK"
  Category: "rule met"
- Binder: "H4H9672P (antibody, V domains shown) VH: EVQLVESGGGLVQPGGSLRLSCAASGFTLRSYVMYWVRQGPGKGLEGVSGISGSSGGTYYTDSVKGRFTISRDNSKNTLFLQMNSLRAEDTAVYFCARSVYSTTWYGGFQHWGQGTLVTVSS VL: DIQMTQSPSSVSVSVGDRVTITCRASQVISSWLAWYQLKPGKAPKLLIYAASSLQSGVPSRFSGSGSGTDFTLTISGLQPEDFAVYYCQQTNSFPLTFGGGTKVEIK"
  Category: "rule not met"
- Binder: "H4H9640P (antibody, IgG4, V domains shown, also called RG6) VH: QVQLQESGPGLVKPSETLSLTCTVSGGSISSYYWSWIRQPPGKGLELIGYIYYSGSTNYNPSLKSRVTISVDTSKNHFSLKLSSVTAADTAVYYCARSQYTSSWYGSFDIWGQGTMVTVSS VL: DIQMTQSPSSVSASVGDRVTITCRASQGISTWLAWFQQKPGKAPKLLIYAASTLQGGVPSRFSGSGSGPEFTLTISSLQPEDFATYYCQQANSFPWTFGQGTKVEIK"
  Category: "rule met"
- Binder: "H4H9633P (antibody, IgG4, V domains shown, also called RG5) VH: EVQLVESGGGLVQPGGSLRLSCAASGFTFSSYVMSWVRQAPGKGLEWVSSISGNGGSTNYADSVKGRFTISRDNSKNTLFLEMNSLRAEDTAVYYCAKSLGTTTTFLGFDYWGQGTLVTVSS VL: DIQMTQSPSSVSASVGDRVTITCRASQGISSWLAWYQQKPGKAPKLLIYAASSLQSGVPSRFSGSGSGTYFTLTISSLQPEDFATYYCQQANSFPLTFGGGTKVEIK"
  Category: "rule not met"
- Binder: "H4H9666P (antibody, V domains shown) VH: QVQLVQSGAEVKKPGASVKVSCKASGYTFTSYGISWVRQAPGQGLEWMGWIRAYNGYTNYAQKFQGRVTMTTDTSTNTAYMELRTLNSDDTAVYYCARDRYSGSFHGNFDYWGQGTLVTVSS VL: DIQMTQSPSSVSASVGDRVTITCRASQGIFSWLAWYQQKPGKAPKVLIYAASNLESGVPSRFSGSGSGTDFTLTISSLQPEDFATYYCQQANSLPLTFGGGTKVEIK"
  Category: "rule not met"
- Binder: "H4H9659P (antibody, IgG4, V domains shown, also called RG7) VH: QVQLVQSGAEVKKPGASVKVSCKASGYTFNSYGISWVRQAPGQGLEWMGWISSHNGNSHYVQKFQGRVSMTTDTSTSTAYMELRSLRSDDTAVYYCARHSYTTSWYGGFDYWGQGTLVTVSS VL: DIQMTQSPSSVSASVGDRVTITCRASQGFSSWLAWYQQKPGKAPQLLIYAASSLQSGVPSRFSGSGSGSDFTLTISSLQPEDFATYYCQQANSFPLTFGGGTKVEIK"
  Category: "rule met"
